system: IGROV1 ovarian; experiment: NCI-60 one-dose screen, 48 h; settings: 10 µM unless noted
The panel holds about 83,000 compounds, 20% with a hit somewhere; the sample as a whole holds those more often. The source made the active and inactive calls. Rule for the calls: active = growth percent below 10; inactive = the rest.
Outcome codes: active, inactive

compound: O=c1oc2c(C(F)(F)F)cccc2cc1-c1csc(Nc2ccc(OCCF)cc2)n1
target desc: IGROV1 ovarian
class assignment: inactive
--
compound: C#Cc1cccc(NC(=O)c2ccccc2NC(=O)C=C)c1
target desc: IGROV1 ovarian
class assignment: inactive
--
compound: COc1ccc(O)c(N=Nc2nccs2)c1
target desc: IGROV1 ovarian
class assignment: inactive
--
compound: CC(=O)NCC1c2c(n(C)c3c(Cl)c(Cl)ccc23)C(=O)NC1(C)C (centres undefined)
target desc: IGROV1 ovarian
class assignment: inactive
--
compound: C=C1C(=O)O[C@H]2[C@H]1CC/C(COC(=O)NCCc1ccc(OC)c(OC)c1)=C\CC[C@@]1(C)O[C@@H]21
target desc: IGROV1 ovarian
class assignment: inactive
--
compound: COc1cccc(/C=C2\SC(=Nc3ccc(NC(C)=O)cc3)NC2=O)c1OC
target desc: IGROV1 ovarian
class assignment: inactive
--
compound: CSc1nc2c(c(=O)[nH]1)C1(C(=O)Nc3ccccc31)c1c(nc(SC)[nH]c1=O)N2
target desc: IGROV1 ovarian
class assignment: inactive
--
compound: COc1cccc(-c2nc3sccn3c2-c2ccnc(NCCCNS(=O)(=O)c3cccc(Cl)c3)c2)c1
target desc: IGROV1 ovarian
class assignment: inactive
--
compound: CC(C)c1c(C(=O)c2ccccc2)c(-c2ccccc2)c(-c2ccc(F)cc2)n1CC[C@@H](O)C[C@@H](O)CC(=O)O
target desc: IGROV1 ovarian
class assignment: inactive
--
compound: CC(C)(C)c1cc(C(C)(C)C)cc(S(=O)(=O)Nc2cc3ccccc3cc2C(=O)NCCN)c1
target desc: IGROV1 ovarian
class assignment: inactive
--
compound: O=C(Cc1ccc(/C=C/C(=O)c2ncc[nH]2)cc1)Nc1ccc(F)cc1
target desc: IGROV1 ovarian
class assignment: inactive
--
compound: Cc1cc(N[C@@H]2CCC[C@H](Nc3ccnc4cc(Cl)ccc34)C2)nc(N2CCCCCC2)n1
target desc: IGROV1 ovarian
class assignment: active
--
compound: O=C1CC[C@H](c2ccc(O)c3c2C(=O)[C@@H]2O[C@@H]2C3=O)c2cccc(O)c21
target desc: IGROV1 ovarian
class assignment: inactive
--
compound: O=C1c2ccccc2C(=O)c2c1ccc1[nH]c(-c3cccs3)nc21
target desc: IGROV1 ovarian
class assignment: inactive
--
compound: COc1cccc(-c2nc3sccn3c2-c2ccnc(NCCCNS(=O)(=O)c3c(Cl)cccc3Cl)c2)c1
target desc: IGROV1 ovarian
class assignment: inactive
--
compound: CCOc1nc(-c2ccccc2)cc2c(O)c(C(=O)O)[nH]c(=O)c12
target desc: IGROV1 ovarian
class assignment: inactive
--
compound: O=C(C(=O)c1ccc2c(c1)OCO2)c1ccc2c(c1)OCO2
target desc: IGROV1 ovarian
class assignment: inactive
--
compound: C=C1C(=O)O[C@H]2[C@H]1CC/C(COC(=O)NCc1ccc(OC)c(OC)c1)=C\CC[C@@]1(C)O[C@@H]21
target desc: IGROV1 ovarian
class assignment: inactive
--
compound: CSc1ccc(SC2c3ccc(C)cc3Oc3nc(N)c(C#N)c(N)c32)cc1 (centres undefined)
target desc: IGROV1 ovarian
class assignment: active

###

Each entry below carries its reported growth.
system: SR leukemia; assay: NCI-60 one-dose screen, 48 h (100 = growth as untreated, 0 = no growth, -100 = all killed); conditions: 10 µM unless noted
Compounds without any hit were thinned out: in the full panel of roughly 83,000, 20% have a hit. Active and inactive are the calls of the source. How the source made its calls: active means growth percent below 10; inactive means the rest.

molecule: COc1ccc2c(c1)C(=O)/C(=C/c1ccccn1)CC2
target desc: SR leukemia
growth: 7.35% (active)
//
molecule: OCCNc1nccc(N2CCN(c3ccnc4cc(Cl)ccc34)CC2)n1
target desc: SR leukemia
growth: 17.4% (inactive)
//
molecule: O=CNc1ccc2c(c1)Cc1cccc(NC=O)c1-2
target desc: SR leukemia
growth: 108% (inactive)
//
molecule: CN(C)c1ccc(NC(=O)c2ccc(/C=C/C(=O)c3ncc[nH]3)cc2)cc1
target desc: SR leukemia
growth: 5.75% (active)
//
molecule: CN1CCN(CCCOc2cccc3nc(Nc4cc(Cl)cc(Cl)c4)ccc23)CC1
target desc: SR leukemia
growth: -30.2% (active)
//
molecule: CCOc1cc2ncc(C#N)c(Nc3ccc(F)c(Cl)c3)c2cc1NC(=O)CC1CCSS1 (centres undefined)
target desc: SR leukemia
growth: -27.8% (active)
//
molecule: COc1cccc2c1C(=O)c1c(O)c3c(c(O)c1C2=O)C[C@](O)(C(=O)CO)C[C@H]3O[C@@H]1C[C@@H](NC(=O)CCCCCN(C)C2(c3ccc(F)cc3)CC3CCC2C3)[C@H](O)[C@@H](C)O1 (some centres undefined)
target desc: SR leukemia
growth: -45.7% (active)
//
molecule: COc1cc(-c2ccc3c(c2)NC(=O)/C3=C\c2ccc[nH]2)ccc1O
target desc: SR leukemia
growth: 8.9% (active)
//
molecule: COc1ccc(-c2nnc(SCC(=O)c3ccc(Cl)cc3)o2)cc1
target desc: SR leukemia
growth: 105% (inactive)

###

tested on: HT29 colon; test: NCI-60 one-dose screen, 48 h; conditions: 10 µM unless noted
Compounds without any hit were thinned out: in the full panel of roughly 83,000, 20% have a hit. Calls of active or inactive are those of the source. How the source made its calls: active means growth percent below 10; inactive means the rest.
Outcome codes: yes (1) = active, no (0) = inactive

molecule: CC1=C[C@H]2c3c(c(O)c(O)c4oc(-c5ccccc5)cc(=O)c34)[C@H](c3cc(O)c(O)c4oc(-c5ccccc5)cc(=O)c34)[C@H]2C(C)(C)C1
class assignment: yes (1)

molecule: O=C(Cc1ccccc1Nc1c(Cl)cccc1Cl)NN1C(=O)/C(=C/c2ccc(Br)cc2)SC1=S
class assignment: no (0)

molecule: O=C1OC(c2ccccc2)C(O)=C1c1ccccc1 (centres undefined)
class assignment: no (0)

molecule: COc1cc(-c2nc(C(=O)NCC(=O)NO)nn2-c2ccc(Cl)cc2)cc(OC)c1OC
class assignment: no (0)

###

system: OVCAR-8 ovarian; assay: NCI-60 one-dose screen, 48 h; conditions: 10 µM unless noted
Compounds without any hit were thinned out: in the full panel of roughly 83,000, 20% have a hit. Activity calls are given as the source filed them. The calls were made as follows: active = growth percent below 10; inactive = the rest.
Outcome codes: 1 (yes) for active, 0 (no) for inactive

molecule: COc1ccc(/C=C2\Oc3cc(OCCCCN4CCCC4)ccc3C2=O)cc1
class assignment: 0 (no)
--
molecule: N#Cc1c(-c2ccc(Cl)cc2)nc(NN=Cc2ccco2)nc1N1CCOCC1
class assignment: 0 (no)
--
molecule: O=C1c2ccccc2C(=O)c2c1ccc1[nH]c(-c3cccs3)nc21
class assignment: 0 (no)
--
molecule: CCC([N+](=O)[O-])S(=O)(=O)c1ccc(C)cc1 (stereo not given)
class assignment: 0 (no)
--
molecule: COCCNc1ccc2c3c(cccc13)C(=O)N(CCN(C)C)C2=O
class assignment: 0 (no)
--
molecule: O=C(Nc1cccc2[nH]c(C(F)(F)F)nc12)c1ccc(-n2cnnn2)cc1
class assignment: 0 (no)
--
molecule: NNCCc1ccc(NC(=O)CCCc2ccc(/C=C/C(=O)NO)cc2)cc1
class assignment: 1 (yes)
--
molecule: C=C1C(=O)O[C@H]2[C@H]1CC/C(COC(=O)c1cc3cc(OC)ccc3[nH]1)=C\CC[C@@]1(C)O[C@@H]21
class assignment: 1 (yes)
--
molecule: COc1cccc(-c2nc(SCC(=O)Nc3ccc(C(=O)/C=C/c4ccc(OC)c(OC)c4)cc3)[nH]c(=O)c2C#N)c1
class assignment: 0 (no)
--
molecule: Cn1cc(C(=O)c2nc(-c3c[nH]c4ccccc34)no2)c2ccccc21
class assignment: 0 (no)
--
molecule: CC1=CC(C)(C)Nc2ccc(Cc3ccc4c(c3)C(C)=CC(C)(C)N4)cc21
class assignment: 0 (no)
--
molecule: Cc1nn(-c2ccc(F)cc2)c2ncnc(Nc3ccc(NC(=O)Nc4ccc(Cl)c(C(F)(F)F)c4)cc3)c12
class assignment: 0 (no)
--
molecule: COc1cc2c(cc1O)CC[C@@H]1[C@@H]2CC[C@]2(C)[C@@H](OCCN(C)C)CC[C@@H]12
class assignment: 0 (no)
--
molecule: COc1ccc(NC2=C(Sc3nc(C)cc(C)n3)C(=O)N(Cc3ccccc3)C2=O)cc1Cl
class assignment: 0 (no)
--
molecule: CCc1nnc(CNc2ccc(Cl)cc2)o1
class assignment: 0 (no)
--
molecule: Cn1c(NCCc2ccc(O)c(O)c2)nc2c1c(=O)n(Cc1ccc(Cl)c(Cl)c1)c(=O)n2C
class assignment: 0 (no)
--
molecule: O=C(CN(C(=O)Cn1c(=O)n2nnnc2c2ccccc21)c1ccccc1C(F)(F)F)Nc1ccc(C(F)(F)F)cc1
class assignment: 0 (no)
--
molecule: COc1ccc(S(=O)(=O)N2CCN(C)CC2)cc1NC(=O)c1[nH]c(C)c2c1CCCCC2=O
class assignment: 0 (no)
--
molecule: O=[N+]([O-])c1ccccc1/C=N\NC(=S)N/N=C/c1ccccc1[N+](=O)[O-]
class assignment: 0 (no)
--
molecule: O=C1NC(=S)N[C@H]1CC(=O)n1cnc2ccccc21
class assignment: 0 (no)
